assay: Hygroscopicity experiment (DVS); assay type: physicochemical; conditions: Cycle 1, target relative humidity 30.0%, 25° C.
Listed here: items and their measured % percentage of mass change, Sorption.
Answer with a number only, understood to be in %.

Example entries begin here.
{"compound": "Cl.N#Cc1cc2n(CC(=O)Nc3ccc(F)cn3)c(=O)c3ccc(C(F)(F)F)nc3n2n1 [Hydrochloride (crystal form A)]", "unit_info": "%", "% percentage of mass change, Sorption": 4.325}
{"compound": "CCS(=O)(=O)O.N#Cc1cc2n(CC(=O)Nc3ccc(F)cn3)c(=O)c3ccc(C(F)(F)F)nc3n2n1 [Ethanesulfonate (crystal form A)]", "unit_info": "%", "% percentage of mass change, Sorption": 0.139}
{"compound": "N#Cc1cc2n(CC(=O)Nc3ccc(F)cn3)c(=O)c3ccc(C(F)(F)F)nc3n2n1.O=S(=O)(O)O [Sulfate (crystal form B)]", "unit_info": "%", "% percentage of mass change, Sorption": 0.236}

The record that follows has no % percentage of mass change, Sorption shown yet.
Give its % percentage of mass change, Sorption value. Item: CS(=O)(=O)O.N#Cc1cc2n(CC(=O)Nc3ccc(F)cn3)c(=O)c3ccc(C(F)(F)F)nc3n2n1 [Methanesulfonate (crystal form A)] 0.138

###

Assay: Solubility experiment in different media
Assay type: physicochemical
Conditions: aqueous buffer, thermodynamic from solid, USP Buffer pH 6, room temperature
Experimental: The vials were placed on a spin mixer overnight at room temperature. After 24 hours, the sample solution was filtered through a 0.45 μm mixed aqueous fiber membrane. The content of the compound in the filtrate was determined by HPLC. [table]
quantity_kind: solubility at 24 h (µg/mL)
Answer with a number only, understood to be in µg/mL.

Give its solubility at 24 h value. Item: CS(=O)(=O)O.N#Cc1cc2n(CC(=O)Nc3ccc(F)cn3)c(=O)c3ccc(C(F)(F)F)nc3n2n1 [Methanesulfonate (crystal form A)] 2.4

###

experiment: Hygroscopicity experiment (DVS); format: physicochemical; settings: Cycle 2, target relative humidity 40.0%, 25° C.
Listed here: items and their measured % percentage of mass change, Sorption.
Answer with a number only, understood to be in %.

Example entries begin here.
{"molecule": "CCS(=O)(=O)O.N#Cc1cc2n(CC(=O)Nc3ccc(F)cn3)c(=O)c3ccc(C(F)(F)F)nc3n2n1 [Ethanesulfonate (crystal form A)]", "% percentage of mass change, Sorption [%]": 0.174}
{"molecule": "Cl.N#Cc1cc2n(CC(=O)Nc3ccc(F)cn3)c(=O)c3ccc(C(F)(F)F)nc3n2n1 [Hydrochloride (crystal form A)]", "% percentage of mass change, Sorption [%]": 7.269}
{"molecule": "CS(=O)(=O)O.N#Cc1cc2n(CC(=O)Nc3ccc(F)cn3)c(=O)c3ccc(C(F)(F)F)nc3n2n1 [Methanesulfonate (crystal form A)]", "% percentage of mass change, Sorption [%]": 0.162}

Give its % percentage of mass change, Sorption value. Item: Br.N#Cc1cc2n(CC(=O)Nc3ccc(F)cn3)c(=O)c3ccc(C(F)(F)F)nc3n2n1 [Hydrobromide (crystal form B)] 4.030

Do the same for N#Cc1cc2n(CC(=O)Nc3ccc(F)cn3)c(=O)c3ccc(C(F)(F)F)nc3n2n1.O=S(=O)(O)O [Sulfate (crystal form B)] please 0.287

###

test: Pharmacokinetic assay of the salt forms in rats (10 mg/kg); assay type: in vivo; details: male, rat, po; SD rats, p.o. 10 mg/kg, plasma, vehicle 0.5% HPMC; read-out: Plasma concentration Cmax
quantity_kind: Cmax (ng/mL)
Answer with a number only, understood to be in ng/mL.

Example entries begin here.
{"molecule": "CCS(=O)(=O)O.N#Cc1cc2n(CC(=O)Nc3ccc(F)cn3)c(=O)c3ccc(C(F)(F)F)nc3n2n1 [Ethanesulfonate (crystal form A)]", "Cmax, ng/mL": 3840}
{"molecule": "CS(=O)(=O)O.N#Cc1cc2n(CC(=O)Nc3ccc(F)cn3)c(=O)c3ccc(C(F)(F)F)nc3n2n1 [Methanesulfonate (crystal form A)]", "Cmax, ng/mL": 3320}
{"molecule": "Br.N#Cc1cc2n(CC(=O)Nc3ccc(F)cn3)c(=O)c3ccc(C(F)(F)F)nc3n2n1 [Hydrobromide (crystal form B)]", "Cmax, ng/mL": 2470}

The record that follows has no Cmax shown yet.
Give its Cmax value. Item: N#Cc1cc2n(CC(=O)Nc3ccc(F)cn3)c(=O)c3ccc(C(F)(F)F)nc3n2n1.O=S(=O)(O)O [Sulfate (crystal form B)] 3080

###

test: Hygroscopicity experiment (DVS); format: physicochemical; settings: Cycle 2, target relative humidity 80.0%, 25° C.
Listed here: items and their measured % percentage of mass change, Sorption.
Answer with a number only, understood to be in %.

{"compound": "CS(=O)(=O)O.N#Cc1cc2n(CC(=O)Nc3ccc(F)cn3)c(=O)c3ccc(C(F)(F)F)nc3n2n1 [Methanesulfonate (crystal form A)]", "unit_info": "%", "% percentage of mass change, Sorption": 0.433}
{"compound": "CCS(=O)(=O)O.N#Cc1cc2n(CC(=O)Nc3ccc(F)cn3)c(=O)c3ccc(C(F)(F)F)nc3n2n1 [Ethanesulfonate (crystal form A)]", "unit_info": "%", "% percentage of mass change, Sorption": 0.541}
{"compound": "N#Cc1cc2n(CC(=O)Nc3ccc(F)cn3)c(=O)c3ccc(C(F)(F)F)nc3n2n1.O=S(=O)(O)O [Sulfate (crystal form B)]", "unit_info": "%", "% percentage of mass change, Sorption": 0.682}

The record that follows has no % percentage of mass change, Sorption shown yet.
Give its % percentage of mass change, Sorption value. Item: Cl.N#Cc1cc2n(CC(=O)Nc3ccc(F)cn3)c(=O)c3ccc(C(F)(F)F)nc3n2n1 [Hydrochloride (crystal form A)] 7.745

###

Assay: Pharmacokinetic assay of the salt forms in rats (10 mg/kg)
Type: in vivo
Conditions: male, rat, po; SD rats, p.o. 10 mg/kg, plasma, vehicle 0.5% HPMC; read-out: Area under curve AUC0-t
Experimental: 2.3 Pharmacokinetic assay of the methanesulfonate in rats 2.3.1. Study objective: SD rats were used as test animals. The pharmacokinetic behavior of various salt forms of 2-(2-cyano-5-oxo-8-(trifluoromethyl)pyrazolo[1,5-a]pyrido[3,2-e]pyrimidin-4(5H)-yl)-N-(5-fluoropyridin-2-yl)acetamide was studied in rat body (plasma) by orally administration at a dose of 10 mg/kg. […] The main parameters of pharmacokinetics were calculated by WinNonlin 8.2.
quantity_kind: AUC(0-t)
Kindly report the value followed by its unit.

Example entries begin here.
{"molecule": "CCS(=O)(=O)O.N#Cc1cc2n(CC(=O)Nc3ccc(F)cn3)c(=O)c3ccc(C(F)(F)F)nc3n2n1 [Ethanesulfonate (crystal form A)]", "quantity_kind": "AUC(0-t)", "value": "30300 ng·h/mL"}
{"molecule": "Br.N#Cc1cc2n(CC(=O)Nc3ccc(F)cn3)c(=O)c3ccc(C(F)(F)F)nc3n2n1 [Hydrobromide (crystal form B)]", "quantity_kind": "AUC(0-t)", "value": "16800 ng·h/mL"}

Give its AUC(0-t) value. Item: N#Cc1cc2n(CC(=O)Nc3ccc(F)cn3)c(=O)c3ccc(C(F)(F)F)nc3n2n1.O=S(=O)(O)O [Sulfate (crystal form B)] 21600 ng·h/mL

Do the same for CS(=O)(=O)O.N#Cc1cc2n(CC(=O)Nc3ccc(F)cn3)c(=O)c3ccc(C(F)(F)F)nc3n2n1 [Methanesulfonate (crystal form A)] please 25800 ng·h/mL

###

Assay: Hygroscopicity experiment (DVS)
Assay type: physicochemical
Settings: Cycle 2, target relative humidity 20.0%, 25° C.
Source text: 7.1 Hygroscopicity experiment of crystal forms of different salts of compound 2-(2-cyano-5-oxo-8-(trifluoromethyl)pyrazolo[1,5-a]pyrido[3,2-e]pyrimidin-4(5H)-yl)-N-(5-fluoropyridin-2-yl)acetamide 7.1.1 Experimental objective: To investigate the hygroscopicity of crystal forms of different salts of compound 2-(2-cyano-5-oxo-8-(trifluoromethyl)pyrazolo[1,5-a]pyrido[3,2-e]pyrimidin-4(5H)-yl)-N-(5-fluoropyridin-2-yl)acetamide at different relative humidity, so as to provide a basis for storage. […]
Binary call on % percentage of mass change, Desorption with cut-off 0.1%: strictly below means TRUE, and equality or higher means FALSE.

{"compound": "Cl.N#Cc1cc2n(CC(=O)Nc3ccc(F)cn3)c(=O)c3ccc(C(F)(F)F)nc3n2n1 [Hydrochloride (crystal form A)]", "class_name": "FALSE"}

Answer whether the compound Br.N#Cc1cc2n(CC(=O)Nc3ccc(F)cn3)c(=O)c3ccc(C(F)(F)F)nc3n2n1 [Hydrobromide (crystal form B)] has % percentage of mass change, Desorption strictly less than 0.1% FALSE

Do the same for N#Cc1cc2n(CC(=O)Nc3ccc(F)cn3)c(=O)c3ccc(C(F)(F)F)nc3n2n1.O=S(=O)(O)O [Sulfate (crystal form B)] please FALSE

Do the same for CCS(=O)(=O)O.N#Cc1cc2n(CC(=O)Nc3ccc(F)cn3)c(=O)c3ccc(C(F)(F)F)nc3n2n1 [Ethanesulfonate (crystal form A)] please TRUE

Do the same for CS(=O)(=O)O.N#Cc1cc2n(CC(=O)Nc3ccc(F)cn3)c(=O)c3ccc(C(F)(F)F)nc3n2n1 [Methanesulfonate (crystal form A)] please TRUE
